Test System: REFACTO® factor VIII-like polypeptide (amino acids 1-743 and 1638 through 2332 of human factor VIII) (human) (UniProt P00451)
Sequence (P00451 20-762, chain 1 of 2): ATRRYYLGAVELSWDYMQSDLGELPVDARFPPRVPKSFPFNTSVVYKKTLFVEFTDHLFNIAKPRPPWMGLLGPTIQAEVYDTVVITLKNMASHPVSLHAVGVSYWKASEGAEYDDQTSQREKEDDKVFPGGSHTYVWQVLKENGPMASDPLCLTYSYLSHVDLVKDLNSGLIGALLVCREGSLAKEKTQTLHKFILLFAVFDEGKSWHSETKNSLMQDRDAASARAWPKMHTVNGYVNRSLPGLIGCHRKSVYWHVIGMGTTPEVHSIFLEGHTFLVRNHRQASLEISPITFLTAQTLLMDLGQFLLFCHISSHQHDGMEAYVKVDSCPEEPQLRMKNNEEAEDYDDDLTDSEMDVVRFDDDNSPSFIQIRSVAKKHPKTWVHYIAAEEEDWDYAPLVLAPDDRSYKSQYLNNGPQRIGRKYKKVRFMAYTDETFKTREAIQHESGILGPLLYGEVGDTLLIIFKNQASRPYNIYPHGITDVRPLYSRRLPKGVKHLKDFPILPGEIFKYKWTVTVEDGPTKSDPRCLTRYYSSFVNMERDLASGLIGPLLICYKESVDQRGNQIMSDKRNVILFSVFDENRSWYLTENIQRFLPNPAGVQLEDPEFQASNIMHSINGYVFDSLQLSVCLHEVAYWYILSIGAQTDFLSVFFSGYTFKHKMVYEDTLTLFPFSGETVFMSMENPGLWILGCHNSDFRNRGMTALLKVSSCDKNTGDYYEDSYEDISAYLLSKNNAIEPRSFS
Sequence (P00451 1657-2351, chain 2 of 2): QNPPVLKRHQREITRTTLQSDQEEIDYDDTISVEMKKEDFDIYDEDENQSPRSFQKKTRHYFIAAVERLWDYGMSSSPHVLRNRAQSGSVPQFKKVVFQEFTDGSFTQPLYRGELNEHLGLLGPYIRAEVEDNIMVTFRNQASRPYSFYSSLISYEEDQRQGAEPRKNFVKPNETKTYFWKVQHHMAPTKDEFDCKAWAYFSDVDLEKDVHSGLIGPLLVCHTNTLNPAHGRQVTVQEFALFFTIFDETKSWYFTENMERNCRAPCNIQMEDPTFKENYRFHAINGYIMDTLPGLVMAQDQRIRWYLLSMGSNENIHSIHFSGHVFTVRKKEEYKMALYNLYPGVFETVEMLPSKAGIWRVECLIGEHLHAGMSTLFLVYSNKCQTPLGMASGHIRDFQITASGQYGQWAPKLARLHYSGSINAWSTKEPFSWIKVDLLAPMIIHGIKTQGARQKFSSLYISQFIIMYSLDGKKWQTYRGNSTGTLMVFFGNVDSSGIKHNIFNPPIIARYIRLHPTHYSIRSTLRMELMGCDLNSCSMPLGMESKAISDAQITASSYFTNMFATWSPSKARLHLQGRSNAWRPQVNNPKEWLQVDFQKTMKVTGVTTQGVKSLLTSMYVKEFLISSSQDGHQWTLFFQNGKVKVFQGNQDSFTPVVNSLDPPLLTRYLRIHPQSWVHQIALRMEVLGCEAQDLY
Assay Details: affinity column of immobilised peptide; fractions by factor VIII activity assay
Positions of bridges follow the written chain, without caps; N, C: chain ends. No end group written: not given here. *: point of attachment. NHNH2 = NN*
% recovery in Flow values for the binders below.
Endpoint Name: % recovery in Flow (%)

binder="AEGTGDFGCSWLFPCPFDPGPEGGGS-NHNH2 (disulfide 9-15 (inferred)) [Affinity ligand CS-456]" numeric_result=4.8
binder="AEGTGDFCWVFAFDHCHDPGPEGGGS-NHNH2 (disulfide 8-16 (inferred)) [Affinity ligand CS-458]" numeric_result=1.4
binder="AEGTGDHPCGSWLRPCLHDPGPEGGGS-NHNH2 (disulfide 9-16 (inferred)) [Affinity ligand CS-453]" numeric_result=0
